target under test: Cytochrome P450 2C9 (Homo sapiens)
test name: Cytochrome P450 Family 2 Subfamily C Member 9 (CYP2C9) small molecule antagonists: luciferase reporter qHTS assay (AID 1671198); further: nearly all actives have a fitted effect of over 50% in size
reported conditions: P450-Glo CYP2C9 enzyme assay, luciferin luminescence; series mostly up to 115 µM
Records with an inconclusive call do not appear. Active and inactive are the calls of the source. The call rests on the fitted dose curve; in most records, active means well fitted inhibition curve with a large enough effect in the repeat runs; inconclusive means weak or mixed curves; inactive means no such curve, though single readings can be large or run the other way.
Possible outcomes: active, inactive

# compound, cat
rows = [
    ("Nc1cc([N+](=O)[O-])ccc1C(=O)O", "inactive"),
    ("CC(=O)Nc1ccc2c(c1)Cc1cc(NC(C)=O)ccc1-2", "inactive"),
    ("C[C@]12CC[C@@H]3c4ccc(O)cc4CC[C@H]3[C@@H]1CC[C@@H]2O", "inactive"),
    ("CC[C@]12CCCN3CCc4c(n(c5ccccc45)[C@@](O)(C(=O)OC)C1)[C@@H]32", "inactive"),
    ("C[N+](C)(C)CCO", "inactive"),
    ("Cc1ccc(C(C)(C)C)cc1", "inactive"),
    ("COCCOCCOCCO", "inactive"),
    ("CC1=CC(C)(C)Nc2ccccc21", "active"),
    ("Cc1ccc2c(c1)C(=O)OC2=O", "inactive"),
    ("Cc1ccc(/C(=C\\CN2CCCC2)c2ccccn2)cc1", "inactive"),
    ("COC(=O)c1ccc(C)cc1", "inactive"),
    ("Cc1ccc([N+](=O)[O-])c(C)c1", "inactive"),
    ("NCCN", "inactive"),
    ("CC1(C)O[C@@H]2C[C@H]3[C@@H]4C[C@H](F)C5=CC(=O)C=C[C@]5(C)[C@@]4(F)[C@@H](O)C[C@]3(C)[C@]2(C(=O)CO)O1", "active"),
    ("O=C(O)c1cc(=O)[nH]c(=O)[nH]1", "inactive"),
    ("CCCCCCCCCCC(CO)CCCCCCCC (stereo not given)", "inactive"),
    ("C=CCNCC=C", "inactive"),
    ("CCOC(=O)C(C)Oc1ccc(Oc2cnc3cc(Cl)ccc3n2)cc1 (stereo not given)", "active"),
    ("O=C(O)c1ccc(O)cc1", "inactive"),
    ("C1COCCN1", "inactive"),
]

* * *

test name: qHTS assay to identify small molecule agonists of the androgen receptor (AR) signaling pathway in the presence of an antagonist - cell viability counter screen (AID 1259379);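 further: MDA-kb2 human breast cancer cells carrying an MMTV luciferase reporter; nearly all actives have a fitted effect of over 25% in size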
reported conditions: MDA-kb2 viability, CellTiter-Fluor, 16 h; series mostly up to 92.4 µM
Inconclusive results are not listed. The source made the active and inactive calls. Calls come from the whole dose curve; as a rule, active = well fitted cell-killing curve with a large enough effect in the repeat runs; inconclusive = weak or mixed curves, or effect the other way; inactive = flat fitted curve, though single readings scatter.
assay endpoint: outcome

# item smiles, result
data = [
    ("[O-]/[N+](=N\\O)c1ccccc1", "inactive"),
    ("c1ccc2ncccc2c1", "inactive"),
    ("OC[C@H]1O[C@@H]2O[C@H]3[C@H](O)[C@@H](O)[C@@H](O[C@H]4[C@H](O)[C@@H](O)[C@@H](O[C@H]5[C@H](O)[C@@H](O)[C@@H](O[C@H]6[C@H](O)[C@@H](O)[C@@H](O[C@H]7[C@H](O)[C@@H](O)[C@@H](O[C@H]1[C@H](O)[C@H]2O)O[C@@H]7CO)O[C@@H]6CO)O[C@@H]5CO)O[C@@H]4CO)O[C@@H]3CO", "inactive"),
]

* * *

target under test: Voltage-gated inwardly rectifying potassium channel KCNH2 (Homo sapiens) (UniProt Q12809)
Sequence (Q12809 whole entry, looked up): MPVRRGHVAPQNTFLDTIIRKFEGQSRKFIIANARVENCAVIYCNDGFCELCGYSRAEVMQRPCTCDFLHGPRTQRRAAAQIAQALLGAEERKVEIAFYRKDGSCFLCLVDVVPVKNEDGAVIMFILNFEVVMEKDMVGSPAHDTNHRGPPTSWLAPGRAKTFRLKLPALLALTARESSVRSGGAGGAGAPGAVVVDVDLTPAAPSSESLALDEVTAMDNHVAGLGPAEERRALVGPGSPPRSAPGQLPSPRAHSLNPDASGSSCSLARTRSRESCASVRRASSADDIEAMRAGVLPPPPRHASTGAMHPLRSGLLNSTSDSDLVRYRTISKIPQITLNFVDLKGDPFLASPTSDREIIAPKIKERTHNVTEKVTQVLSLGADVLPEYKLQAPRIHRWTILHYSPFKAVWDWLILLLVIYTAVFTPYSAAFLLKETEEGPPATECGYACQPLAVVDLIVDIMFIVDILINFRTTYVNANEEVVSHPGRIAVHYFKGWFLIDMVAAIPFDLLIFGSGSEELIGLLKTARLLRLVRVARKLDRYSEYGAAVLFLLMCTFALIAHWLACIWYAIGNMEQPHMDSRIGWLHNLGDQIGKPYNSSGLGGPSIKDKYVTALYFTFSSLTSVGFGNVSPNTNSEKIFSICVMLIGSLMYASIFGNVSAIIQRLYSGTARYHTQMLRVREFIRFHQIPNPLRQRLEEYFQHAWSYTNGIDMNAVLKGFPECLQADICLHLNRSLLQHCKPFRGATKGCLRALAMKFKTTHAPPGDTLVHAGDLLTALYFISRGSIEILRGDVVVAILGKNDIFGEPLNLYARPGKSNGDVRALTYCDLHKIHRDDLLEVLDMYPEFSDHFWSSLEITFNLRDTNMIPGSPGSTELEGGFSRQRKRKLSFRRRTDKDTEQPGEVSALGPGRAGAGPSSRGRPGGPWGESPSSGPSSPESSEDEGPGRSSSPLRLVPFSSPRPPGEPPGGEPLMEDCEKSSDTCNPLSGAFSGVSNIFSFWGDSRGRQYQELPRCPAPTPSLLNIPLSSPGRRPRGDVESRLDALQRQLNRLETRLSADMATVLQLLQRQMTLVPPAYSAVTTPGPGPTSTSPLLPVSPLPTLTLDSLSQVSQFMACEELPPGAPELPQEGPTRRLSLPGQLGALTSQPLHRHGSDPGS
test name: Human Ether-a-go-go-Related Gene (hERG) channel small molecule antagonists: fluorescence cell-based qHTS assay (AID 1671200);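 further: hERG-expressing U2OS cells given a thallium stimulus after FluxOR II dye loading; nearly all actives have a fitted effect of over 50% in size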
reported conditions: hERG-U2OS cells, FluxOR thallium flux fluorescence; series mostly up to 76.8 µM
Inconclusive results are not listed. Calls of active or inactive are those of the source. Calls come from the whole dose curve; as a rule, active = well fitted inhibition curve with a large enough effect in the repeat runs; inconclusive = weak or mixed curves; inactive = flat fitted curve, though single readings scatter.
assay endpoint: outcome

# compound, result
data = [
    ("NCCS(=O)(=O)O", "inactive"),
    ("C/C=C/C(=O)N(CC)c1ccccc1C", "inactive"),
    ("COC(=O)CC(=O)OC", "inactive"),
    ("CCC/C=C/C=O", "inactive"),
    ("CCCCCC1C(=O)CCC1CC(=O)OC (centres undefined)", "inactive"),
    ("O=C(O)c1cc(=O)[nH]c(=O)[nH]1", "inactive"),
    ("NCCOCCO", "inactive"),
    ("CC(=O)O[C@]1(C(C)=O)CC[C@H]2[C@@H]3C=C(Cl)C4=CC(=O)CC[C@]4(C)[C@H]3CC[C@@]21C", "inactive"),
    ("OC[C@@H](O)[C@@H](O[C@@H]1O[C@H](CO)[C@H](O)[C@H](O)[C@H]1O)[C@H](O)[C@@H](O)CO", "inactive"),
    ("Nc1ccc2c(c1)C(=O)c1ccccc1C2=O", "inactive"),
    ("CCCCCCC(C)O (centres undefined)", "inactive"),
    ("Clc1ccc(Sc2cc(Cl)c(Cl)cc2Cl)cc1", "inactive"),
    ("O=Cc1ccccc1C=O", "inactive"),
    ("Nc1cc(Cl)c(N)c(Cl)c1", "inactive"),
]

// data source = PubChem BioAssay (Tox21)
